These measurements were taken from patent US10294202B2.

- System: velvetleaf
- testDescription: Test C pre-/postemergence herbicide test
- Format: in vivo, Abutilon theophrasti
- details: Postemergence; 125 g ai/ha; scale 0 to 100 (0 no effect, 100 complete control)
Everything with Plant response rating, Velvetleaf lower than 5 is F; everything else, including exactly 5, is T.

Consider the worked cases shown below.
compound="O=C1NCC(c2cc(F)c(F)cc2F)C1C(=O)Nc1cccc(F)c1F (stereo not shown)" cat=T
compound="O=C1NCC(c2ccc(C(F)(F)F)cc2)C1C(=O)Nc1cccc(F)c1F (racemic)" cat=T
compound="O=C1NCC(c2ccc(C(F)(F)F)cc2)C1C(=O)Nc1ccccc1F (stereo not shown)" cat=F
compound="O=C1NCC(c2cccc(OC(F)F)c2)C1C(=O)Nc1cccc(F)c1F (stereo not shown)" cat=T
compound="O=C1NCC(c2ccc(F)c(F)c2)C1C(=O)Nc1cccc(F)c1F (racemic)" cat=T

[ask] Test whether the compound "O=C1NC[C@H](c2cccc(C(F)(F)F)c2)[C@H]1C(=O)Nc1cccc(F)c1F" records Plant response rating, Velvetleaf of 5 or higher.
[reply] T

[ask] Test whether the compound O=C1NCC(c2cccc(Br)c2)C1C(=O)Nc1ccc(F)c(F)c1F (stereo not shown) records Plant response rating, Velvetleaf of 5 or higher.
[reply] F

[ask] Test whether the compound O=C1NCC(c2cc(F)c(F)c(F)c2)C1C(=O)Nc1cccc(F)c1F (stereo not shown) records Plant response rating, Velvetleaf of 5 or higher.
[reply] T

---

- System: barnyardgrass
- testDescription: Test A pre-/postemergence herbicide test
- Assay type: in vivo, Echinochloa crus-galli
- details: Preemergence, 125 g ai/ha; 0 to 100 scale where 0 is no effect and 100 is complete control
- Source text: […]
Provide the reported Plant response rating, Barnyardgrass of each item.
Answers are plain numbers.

Solved cases (6 shown):
compound="O=C1NCC(c2ccc(Cl)c(Cl)c2)C1C(=O)Nc1ccc(F)cc1F (racemic)" assayendpoint="Plant response rating, Barnyardgrass" numericresult=70
compound="CSc1cccc(C2CNC(=O)C2C(=O)Nc2ccccc2Cl)c1 (centres unmarked)" assayendpoint="Plant response rating, Barnyardgrass" numericresult=20
compound="O=C1NCC(c2cc(F)cc(F)c2)C1C(=O)Nc1ccccc1Cl (racemic)" assayendpoint="Plant response rating, Barnyardgrass" numericresult=80
compound="O=C1NCC(c2ccc(OC(F)(F)F)cc2)C1C(=O)Nc1ccccc1F (racemic)" assayendpoint="Plant response rating, Barnyardgrass" numericresult=0
compound="CC(C)N1CC(c2ccc(F)cc2)C(C(=O)Nc2cccc(F)c2F)C1=O (centres unmarked)" assayendpoint="Plant response rating, Barnyardgrass" numericresult=0
compound="O=C1NCC(c2cnn(CC(F)(F)F)c2)C1C(=O)Nc1ccccc1C(F)(F)F (centres unmarked)" assayendpoint="Plant response rating, Barnyardgrass" numericresult=0

For every record below, what is its Plant response rating, Barnyardgrass?
1. CN1CC(c2ccc(C(F)(F)F)cc2)C(C(=O)Nc2cccc(F)c2F)C1=O (centres unmarked)
2. O=C1NCC(c2ccc(Br)c(Br)c2)C1C(=O)Nc1ccc(F)cc1F (centres unmarked)

[reply]
1. 90
2. 60

---

- Tested on: chickweed
- testDescription: Test C postemergence herbicide test
- Type: in vivo, Stellaria media
- details: 250 g ai/ha, scale 0 to 100 (0 no effect, 100 complete control)
assayEndpoint: Plant response rating, Chickweed
Numbers only.

Solved cases (3 shown):
molecule="O=C1NCC(c2cccc(OC(F)F)c2)C1C(=O)Nc1cccc(F)c1F (stereo not shown)" tgt=chickweed assayendpoint="Plant response rating, Chickweed" numericresult=85
molecule="O=C1NCC(c2ccc(C(F)(F)F)cc2)C1C(=O)Nc1cccc(F)c1F (stereo not shown)" tgt=chickweed assayendpoint="Plant response rating, Chickweed" numericresult=90
molecule=O=C1NC[C@H](c2cccc(C(F)(F)F)c2)[C@H]1C(=O)Nc1cccc(F)c1F tgt=chickweed assayendpoint="Plant response rating, Chickweed" numericresult=85

// moving on: another record for Plant response rating, Chickweed
[ask] What does the data say about its Plant response rating, Chickweed? Entry: O=C1NCC(c2ccc(F)c(F)c2)C1C(=O)Nc1cccc(F)c1F (racemic)
[reply] 80

---

Provide the reported Plant response rating, Kochia of each item.
- Tested on: kochia
- testDescription: Test A pre-/postemergence herbicide test
- Type: in vivo, Kochia scoparia
- details: 125 g ai/ha; visual rating, 0 to 100 scale, 0 no effect, 100 complete control; approximately 10 days; preemergence

Solved cases (5 shown):
compound="Cc1cc(C2CNC(=O)C2C(=O)Nc2cccc(F)c2F)ccc1F (racemic)" result=0
compound="O=C1NCC(c2ccc(F)cc2)C1C(=O)Nc1ccccc1OC(F)F (racemic)" result=0
compound="O=C1NCC(c2cccc(OC(F)(F)C(F)F)c2)C1C(=O)Nc1ccccc1Cl (racemic)" result=30
compound="O=C1NCC(c2cccc(OC(F)F)c2)C1C(=O)Nc1cccc(F)c1F (stereo not shown)" result=80
compound="Cc1ccc(C2CNC(=O)C2C(=O)Nc2ccc(F)c(F)c2F)cc1F (racemic)" result=30

For every record below, what is its Plant response rating, Kochia?
1. O=C1NCC(c2cccc(S(F)(F)(F)(F)F)c2)C1C(=O)Nc1cccc(F)c1F (stereo not shown)
2. Cc1cccc(NC(=O)C2C(=O)NCC2c2cccc(C(F)(F)F)c2)c1F (racemic)
3. Cc1ccc(NC(=O)C2C(=O)NCC2c2cccc(C(F)(F)F)c2)cc1C(F)(F)F (racemic)
4. O=C1NC[C@H](c2cccc(C(F)(F)F)c2)[C@H]1C(=O)Nc1cccc(F)c1F
5. COc1cc(C2CNC(=O)C2C(=O)Nc2ccc(F)c(F)c2F)ccc1F (racemic)

[reply]
1. 0
2. 0
3. 0
4. 70
5. 0

---

- Test system: crabgrass, large
- testDescription: Test A pre-/postemergence herbicide test
- Assay type: in vivo, Digitaria sanguinalis
- details: preemergence; 500 g ai/ha; 0 to 100 scale, 0 is no effect and 100 is complete control
assayEndpoint: Plant response rating, Crabgrass, Large
One number for each entry.

Solved cases (3 shown):
compound="COc1ccc(C2CNC(=O)C2C(=O)Nc2cccc(F)c2F)cc1F (racemic) [Compound 198]" numericresult=100
compound="O=C1NCC(c2ccc(OC(F)(F)F)cc2)C1C(=O)Nc1ccccc1C(F)(F)F (racemic) [Compound 258]" numericresult=90
compound="O=C1NCC(c2cccc(C(F)(F)F)c2)C1C(=O)Nc1ccccc1Br (racemic) [Compound 190]" numericresult=90

// moving on: another record for Plant response rating, Crabgrass, Large
[ask] What does the data say about its Plant response rating, Crabgrass, Large? Entry: COc1ccc(C2CNC(=O)C2C(=O)Nc2ccccc2C(F)(F)F)cc1F (racemic) [Compound 199]
[reply] 100

---

Provide the reported Plant response rating, Wheat of each item.
- Tested on: wheat
- testDescription: Test A pre-/postemergence herbicide test
- Format: in vivo, Triticum aestivum
- details: Preemergence, 1000 g ai/ha; visual rating on 0 to 100 scale (0 no effect, 100 complete control), approx. 10 days
Numbers only.

compound="O=C1NCC(c2ccc(Cl)c(Cl)c2)C1C(=O)Nc1ccccc1[N+](=O)[O-] (stereo not drawn) [Compound 39]" numericresult=0
compound="CS(=O)(=O)c1ccccc1NC(=O)C1C(=O)NCC1c1ccc(F)c(F)c1 (racemic) [Compound 21]" numericresult=20
compound="Cc1c(Cl)cccc1NC(=O)C1C(=O)NCC1c1ccc(F)c(F)c1 (racemic) [Compound 100]" numericresult=20

For every record below, what is its Plant response rating, Wheat?
1. O=C1NCC(c2ccc(F)c(F)c2)C1C(=O)Nc1ccccc1Cl (racemic) [Compound 99]
2. O=C1NCC(c2ccc(F)c(F)c2)C1C(=O)Nc1cccc(Cl)c1 (racemic) [Compound 18]
3. O=C1NCC(c2ccc(Cl)c(Cl)c2)C1C(=O)Nc1cccc(F)c1F (racemic) [Compound 25]

[reply]
[20, 0, 0]

---

Provide the reported Plant response rating, Ragweed of each item.
- System: ragweed
- testDescription: Test A pre-/postemergence herbicide test
- Assay type: in vivo, Ambrosia elatior
- details: Postemergence, 125 g ai/ha; 0 to 100 scale, 0 no effect, 100 complete control
- Text: […]
One number for each entry.

Solved cases (4 shown):
molecule="Cc1ccccc1NC(=O)C1C(=O)NCC1c1cccc(C(F)(F)F)c1 (racemic)" tgt=ragweed assayendpoint="Plant response rating, Ragweed" numericresult=0
molecule="O=C1NCC(c2cccc(OC(F)(F)C(F)F)c2)C1C(=O)Nc1ccccc1Cl (racemic)" tgt=ragweed assayendpoint="Plant response rating, Ragweed" numericresult=0
molecule="Cc1ccc(C2CNC(=O)C2C(=O)Nc2cccc(F)c2F)cc1F (racemic)" tgt=ragweed assayendpoint="Plant response rating, Ragweed" numericresult=0
molecule="Cc1cc(C2CNC(=O)C2C(=O)Nc2ccccc2F)ccc1F (racemic)" tgt=ragweed assayendpoint="Plant response rating, Ragweed" numericresult=0

For every record below, what is its Plant response rating, Ragweed?
1. Cc1cc(C2CNC(=O)C2C(=O)Nc2ccc(F)cc2F)ccc1F (racemic)
2. O=C1NCC(c2cccc(OC(F)(F)C(F)F)c2)C1C(=O)Nc1cccc(F)c1F (racemic)

[reply]
1: 0; 2: 50
